- protocol: refractive index (Na D-line) (dimensionless)
- appliedConditions: 293.15 K; 101.33 kPa; Liquid; Standard Abbe refractometry
measuredProperty: refractive index
Answers are plain numbers.

Consider the reported refractive index for these compounds:
>>> observedresult("CCCCCCCCCO")
1.4334
>>> observedresult("CN(C)C=O [dimethylformamide]")
1.4304
>>> observedresult("CCCCCCCC")
1.3978
>>> observedresult("NCCO")
1.4542
>>> observedresult("CCCCCCCCO")
1.4291
>>> observedresult("O=CN1CCOCC1")
1.4849

Next compound, please.
Task item: Item "CCCCCCCCCCCCCCCC" : provide refractive index
Reply: 1.4346

###

- protocol: refractive index (Na D-line) (dimensionless)
- appliedConditions: 293.15 K; 101.33 kPa; Liquid; Standard Abbe refractometry
Would you kindly list refractive index for each of these molecules?
One number for each entry.

Consider the reported refractive index for these molecules:
>>> observedresult("O [water]")
1.3329
>>> observedresult("CC#N [acetonitrile]")
1.3439
>>> observedresult("CCCCCCCCCCCC [dodecane]")
1.4218

Would you be so kind as to report refractive index for each listed record?
1. CCC(C)O (stereo unspecified) [butan-2-ol]
2. CN1CCCC1=O [N-methylpyrrolidone]
3. CCCCCO [pentan-1-ol]

Reply:
[1.3983, 1.469, 1.4098]
